Attribute: IC50
- SYSTEM_UNDER_TEST: FGFR3 V555M (Homo sapiens, UniProt P22607, V555M)
- Construct: P41212 (Transcription factor ETV6)
- Sequence (P22607 472-761 V555M limits assumed): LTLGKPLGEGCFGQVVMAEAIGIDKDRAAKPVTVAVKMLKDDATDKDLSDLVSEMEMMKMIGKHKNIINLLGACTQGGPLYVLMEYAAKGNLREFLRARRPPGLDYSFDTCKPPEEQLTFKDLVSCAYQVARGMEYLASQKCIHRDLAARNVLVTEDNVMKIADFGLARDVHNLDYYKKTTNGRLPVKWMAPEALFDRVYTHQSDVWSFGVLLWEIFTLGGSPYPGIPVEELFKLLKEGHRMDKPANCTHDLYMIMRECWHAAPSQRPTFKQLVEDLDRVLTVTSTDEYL
- EXPERIMENT: Cell proliferation assay for FGFR3 V555M in BaF3
- Format: cell-based
- SETUP_CONDITIONS: BaF3 cells expressing FGFR3 V555M fusion, 48 hrs, CellTiter Glo

SMILES_TEXT: C=CC(=O)N1CC[C@H](n2cc(C#Cc3cc4nc(C5CC5)sc4cc3F)c3c(N)ncnc32)C1
IC50: 0.5 to 5 nM

SMILES_TEXT: C=CC(=O)N1CC[C@H](n2nc(C#Cc3ccc4sc(C(F)F)nc4c3)c3c(N)ncnc32)C1
IC50: 5 to 50 nM

SMILES_TEXT: C=CC(=O)N1CC[C@H](n2nc(C#Cc3cc4nc(N5CCC5)oc4cc3F)c3c(N)ncnc32)C1
IC50: 0.5 to 5 nM

SMILES_TEXT: C=CC(=O)N1CC[C@H](n2nc(C#Cc3ccc4sc(CC)nc4c3)c3c(N)ncnc32)C1
IC50: 5 to 50 nM

SMILES_TEXT: C=CC(=O)N1CC[C@H](n2nc(C#Cc3c(F)cc4oc(NC)nc4c3F)c3c(N)ncnc32)C1
IC50: 0.5 to 5 nM

SMILES_TEXT: C=CC(=O)N1CC[C@H](n2nc(C#Cc3cnc4sc(C)nc4c3)c3c(N)ncnc32)C1
IC50: 50 to 500 nM

SMILES_TEXT: C=CC(=O)N1CC[C@H](n2nc(C#Cc3cc4nc(NC5CC5)oc4cc3F)c3c(N)ncnc32)C1
IC50: 50 to 500 nM

SMILES_TEXT: C=CC(=O)N1CC[C@H](n2cc(C#Cc3ccc4oc(C5CC5)nc4c3)c3c(N)ncnc32)C1
IC50: 0.5 to 5 nM

SMILES_TEXT: C=CC(=O)N1CC[C@H](n2nc(C#Cc3cc4nc(C5(F)CC5)oc4cc3F)c3c(N)ncnc32)C1
IC50: 0.5 to 5 nM

SMILES_TEXT: C=CC(=O)N1CC[C@H](n2cc(C#Cc3ccc4sc(C)nc4c3)c3c(N)ncnc32)C1
IC50: 5 to 50 nM

SMILES_TEXT: C=CC(=O)N1CC[C@H](n2nc(C#Cc3cc4nc(C)sc4cc3F)c3c(N)ncnc32)C1
IC50: 5 to 50 nM

SMILES_TEXT: C=CC(=O)N1CC[C@H](n2cc(C#Cc3ccc4oc(C)nc4c3)c3c(N)ncnc32)C1
IC50: 5 to 50 nM

SMILES_TEXT: C=CC(=O)N1CC[C@H](n2cc(C#Cc3cc4nc(C(F)(F)F)oc4cc3F)c3c(N)ncnc32)C1
IC50: 50 to 500 nM

SMILES_TEXT: CN(C)C/C=C/C(=O)N1CC(n2nc(C#Cc3c(F)cc4sc(C5CC5)nc4c3F)c3c(N)ncnc32)C1
IC50: ≤ 0.5 nM

SMILES_TEXT: C=CC(=O)N1CC[C@H](n2cc(C#Cc3cc4nc(C5CC5)oc4cc3F)c3c(N)ncnc32)C1
IC50: 0.5 to 5 nM

SMILES_TEXT: C=CC(=O)N1CC[C@H](n2cc(C#Cc3ccc4oc(NC)nc4c3)c3c(N)ncnc32)C1
IC50: 5 to 50 nM

All figures here come from patent US20230303575A1.
